Where these numbers come from: patent US20220267347A1

- Test protocol: Pharmacokinetic evaluation after intravenous or gavage administration to dogs
- Type: in vivo, Beagle dogs
- Details: beagle, dog, plasma, intravenous, i.v group, 2.5 mg/kg
In this section, each of the compounds is paired with its reported AUC(0-t).
Readout name: AUC(0-t)

>>> endpoint_value("CONC(=O)Nc1ccc(-c2sc3c(c2CN(C)C)c(=O)n(-c2ccc(-n4nccn4)cn2)c(=O)n3Cc2c(F)cccc2F)cc1")
"4.13 µg·h/mL"
>>> endpoint_value("CONC(=O)Nc1ccc(-c2sc3c(c2CN(C)C)c(=O)n(-c2ccc(-n4cccn4)nc2)c(=O)n3Cc2c(F)cccc2F)cc1")
"9.49 µg·h/mL"
